Organism: Rattus norvegicus
MEASUREMENT_DESCRIPTION: Open TG-GATES - Regimen: Daily Repeat
Type: toxicity, organism-based, Sprague-Dawley
Set-up: regimen Daily Repeat, gender Male, age 6 weeks
APPLIED_CONDITIONS: in vivo, po, 0 mg/kg, 72 h, tissue Blood, route gavage, dose level Control, time 3 day
Simple rule here: Mono less than 3% is fulfilled, otherwise not fulfilled.

Is the reported Mono for CN(C)[C@@H]1C(O)=C(C(N)=O)C(=O)[C@@]2(O)C(O)=C3C(=O)c4c(O)cccc4[C@@](C)(O)[C@H]3C[C@@H]12 strictly below 3%? not fulfilled

Would you kindly repeat that for CC(CN1c2ccccc2Sc2ccccc21)N(C)C (centres undefined) ? fulfilled

Now the compound CN1C(C(=O)Nc2ccccn2)=C(O)c2sc(Cl)cc2S1(=O)=O fulfilled

Next compound: Clc1c(Cl)c(Cl)c(Cl)c(Cl)c1Cl not fulfilled

Now consider C1CCC(C(CC2CCCCN2)C2CCCCC2)CC1 (centres undefined) and answer again. fulfilled

Next compound up: CCOC(=O)[C@H](CCc1ccccc1)N[C@@H](C)C(=O)N1CCC[C@H]1C(=O)O not fulfilled

Also Cc1cccc(Nc2ccccc2C(=O)O)c1C , if possible. fulfilled

* * *

Species on record: Rattus norvegicus
MEASUREMENT_DESCRIPTION: Open TG-GATES - Regimen: Single
Type: toxicity, organism-based, Sprague-Dawley
Parameters: regimen Single, gender Male, age 6 weeks
APPLIED_CONDITIONS: in vivo, po, 0 mg/kg, 9 h, tissue Plasma, route gavage, dose level Control
Field: LDH. Provide a value for each of the compounds that follow.
Record the value in IU/L, omitting the unit from your answer.

If you can, please state the reported LDH value of Clc1c(Cl)c(Cl)c(Cl)c(Cl)c1Cl [PERCHLOROBENZENE] . 175.8

Follow-up item: CN(C)[C@@H]1C(O)=C(C(N)=O)C(=O)[C@@]2(O)C(O)=C3C(=O)c4c(O)cccc4[C@@](C)(O)[C@H]3C[C@@H]12 [TETRACYCLINE] 81.2

Likewise for C1CCC(C(CC2CCCCN2)C2CCCCC2)CC1 (stereo not given) [PERHEXILINE] ? 196.4

Similarly, CN1C(C(=O)Nc2ccccn2)=C(O)c2sc(Cl)cc2S1(=O)=O [LORNOXICAM] ? 162.2

Ok, now CCOC(=O)[C@H](CCc1ccccc1)N[C@@H](C)C(=O)N1CCC[C@H]1C(=O)O 69.8

Thanks! And Cc1cccc(Nc2ccccc2C(=O)O)c1C [MEFENAMIC ACID] ? 187.4

Can you handle C#C[C@]1(O)CC[C@H]2[C@@H]3CCC4=Cc5oncc5C[C@]4(C)[C@H]3CC[C@@]21C [DANAZOL] next? 144.2

What do you have for CC(CN1c2ccccc2Sc2ccccc21)N(C)C (stereo not given) [PROMETHAZINE] ? 237.8

Then this compound: COc1cc([C@@H]2c3cc4c(cc3[C@@H](O[C@@H]3O[C@@H]5CO[C@@H](C)O[C@H]5[C@H](O)[C@H]3O)[C@H]3COC(=O)[C@H]23)OCO4)cc(OC)c1O [ETOPOSIDE] 59.2

Also check CC(=O)Nc1nnc(S(N)(=O)=O)s1 [ACETAZOLAMIDE] 163.2

* * *

Record form. Attribute: Na. Fill in for each entry.
Species: Rattus norvegicus
MEASUREMENT_DESCRIPTION: Open TG-GATES - Regimen: Daily Repeat
Format: toxicity, organism-based, Sprague-Dawley
Parameters: regimen Daily Repeat, gender Male, age 6 weeks
APPLIED_CONDITIONS: in vivo, po, 0 mg/kg, 72 h, tissue Plasma, route gavage, dose level Control, time 3 day
Report the figure in meq/L without appending any unit label.

// lookup Na for CC(CN1c2ccccc2Sc2ccccc21)N(C)C (stereo not given) 141.2

Another compound to check: CC(=O)Nc1nnc(S(N)(=O)=O)s1 [ACETAZOLAMIDE] 142

Same read-out for Cc1cccc(Nc2ccccc2C(=O)O)c1C ? 141

Same for C#C[C@]1(O)CC[C@H]2[C@@H]3CCC4=Cc5oncc5C[C@]4(C)[C@H]3CC[C@@]21C 142.6

Clc1c(Cl)c(Cl)c(Cl)c(Cl)c1Cl , same question. 138.6

* * *

Organism: Rattus norvegicus
MEASUREMENT_DESCRIPTION: Open TG-GATES - Regimen: Single
Format: toxicity, organism-based, Sprague-Dawley
Set-up: regimen Single, gender Male, age 6 weeks
APPLIED_CONDITIONS: in vivo, po, 0 mg/kg, 3 h, tissue Plasma, route gavage, dose level Control
Give measured LDH for each item. Keep answers brief.
Answer with a number only, understood to be in IU/L.

Using the record for Clc1c(Cl)c(Cl)c(Cl)c(Cl)c1Cl , report its LDH. 216.2

And the next one, CC(=O)Nc1nnc(S(N)(=O)=O)s1 [ACETAZOLAMIDE] ? 235.8

How about CN1C(C(=O)Nc2ccccn2)=C(O)c2sc(Cl)cc2S1(=O)=O ? 168

And Cc1cccc(Nc2ccccc2C(=O)O)c1C ? 213

Field entry: C1CCC(C(CC2CCCCN2)C2CCCCC2)CC1 (stereo not given) 147.6

Field entry: COc1cc([C@@H]2c3cc4c(cc3[C@@H](O[C@@H]3O[C@@H]5CO[C@@H](C)O[C@H]5[C@H](O)[C@H]3O)[C@H]3COC(=O)[C@H]23)OCO4)cc(OC)c1O [ETOPOSIDE] 97.4

Item: CN(C)[C@@H]1C(O)=C(C(N)=O)C(=O)[C@@]2(O)C(O)=C3C(=O)c4c(O)cccc4[C@@](C)(O)[C@H]3C[C@@H]12 87.6

Thanks! And CCOC(=O)[C@H](CCc1ccccc1)N[C@@H](C)C(=O)N1CCC[C@H]1C(=O)O ? 79.2

Again, but for C#C[C@]1(O)CC[C@H]2[C@@H]3CCC4=Cc5oncc5C[C@]4(C)[C@H]3CC[C@@]21C 204.4

Another compound to look at: CC(CN1c2ccccc2Sc2ccccc21)N(C)C (stereo not given) 234.4

* * *

Species on record: Rattus norvegicus
MEASUREMENT_DESCRIPTION: Open TG-GATES - Regimen: Daily Repeat
Format: toxicity, organism-based, Sprague-Dawley
Set-up: regimen Daily Repeat, gender Male, age 6 weeks
APPLIED_CONDITIONS: in vivo, po, 0 mg/kg, 72 h, tissue Blood, route gavage, dose level Control, time 3 day
I'd appreciate it if you could supply RBC values for the items below.

May I ask what RBC has been recorded for Clc1c(Cl)c(Cl)c(Cl)c(Cl)c1Cl [PERCHLOROBENZENE] ? 623.2 x10_4/ul

Can you handle O=C(O)Cc1ccccc1Nc1c(Cl)cccc1Cl [DICLOFENAC] next? 626.6 x10_4/ul

Quick one: CCOC(=O)[C@H](CCc1ccccc1)N[C@@H](C)C(=O)N1CCC[C@H]1C(=O)O 627.6 x10_4/ul

Also, C#C[C@]1(O)CC[C@H]2[C@@H]3CCC4=Cc5oncc5C[C@]4(C)[C@H]3CC[C@@]21C [DANAZOL] please. 639.8 x10_4/ul

Now the same for Cc1cccc(Nc2ccccc2C(=O)O)c1C [MEFENAMIC ACID] 614 x10_4/ul

* * *

Organism: Rattus norvegicus
MEASUREMENT_DESCRIPTION: Open TG-GATES - Regimen: Daily Repeat
Assay type: toxicity, organism-based, Sprague-Dawley
Design: regimen Daily Repeat, gender Male, age 6 weeks
APPLIED_CONDITIONS: in vivo, po, 0 mg/kg, […], tissue Blood, route gavage, dose level Control, time 14 day
TEST_READOUT: APTT

Suppose we examine the compound CCOC(=O)[C@H](CCc1ccccc1)N[C@@H](C)C(=O)N1CCC[C@H]1C(=O)O ; what APTT value has been reported? 16.5 s

Record: Cc1cccc(Nc2ccccc2C(=O)O)c1C 20.6 s

Entry CN1C(C(=O)Nc2ccccn2)=C(O)c2sc(Cl)cc2S1(=O)=O please 21.1 s

Can you check CC(=O)Nc1nnc(S(N)(=O)=O)s1 [ACETAZOLAMIDE] next? 23.3 s

Repeat for the following compound: C1CCC(C(CC2CCCCN2)C2CCCCC2)CC1 (centres undefined) 23.3 s

Input CC(CN1c2ccccc2Sc2ccccc21)N(C)C (centres undefined) 23.3 s

Lookup CN(C)[C@@H]1C(O)=C(C(N)=O)C(=O)[C@@]2(O)C(O)=C3C(=O)c4c(O)cccc4[C@@](C)(O)[C@H]3C[C@@H]12 17 s

Another compound to look at: C#C[C@]1(O)CC[C@H]2[C@@H]3CCC4=Cc5oncc5C[C@]4(C)[C@H]3CC[C@@]21C 24.6 s

Would you kindly repeat that for Clc1c(Cl)c(Cl)c(Cl)c(Cl)c1Cl ? 16 s

* * *

Could you please report measured Eos for the items listed next?
Organism: Rattus norvegicus
MEASUREMENT_DESCRIPTION: Open TG-GATES - Regimen: Daily Repeat
Type: toxicity, organism-based, Sprague-Dawley
Parameters: regimen Daily Repeat, gender Male, age 6 weeks
APPLIED_CONDITIONS: in vivo, po, 0 mg/kg, […], tissue Blood, route gavage, dose level Control, time 28 day
Quick note: give the figure in %, leave out the unit.

Find the recorded Eos belonging to Clc1c(Cl)c(Cl)c(Cl)c(Cl)c1Cl [PERCHLOROBENZENE] and report it. 1.2

For CC(=O)Nc1nnc(S(N)(=O)=O)s1 [ACETAZOLAMIDE] then? 0.6

Also check CC(CN1c2ccccc2Sc2ccccc21)N(C)C (stereo not given) [PROMETHAZINE] 0.8

Proceed to C1CCC(C(CC2CCCCN2)C2CCCCC2)CC1 (stereo not given) [PERHEXILINE] 0.6

Lookup CCOC(=O)[C@H](CCc1ccccc1)N[C@@H](C)C(=O)N1CCC[C@H]1C(=O)O 1.2
